src = patent US20080200654A1

- TARGET_OF_ASSAY: T1, A33 antigen (full-length human A33) (human, UniProt Q99795 22-319)
- T1 construct: Class I cell membrane protein of the Ig superfamily; also called GPA33; human A33 antigen
- T1 sequence: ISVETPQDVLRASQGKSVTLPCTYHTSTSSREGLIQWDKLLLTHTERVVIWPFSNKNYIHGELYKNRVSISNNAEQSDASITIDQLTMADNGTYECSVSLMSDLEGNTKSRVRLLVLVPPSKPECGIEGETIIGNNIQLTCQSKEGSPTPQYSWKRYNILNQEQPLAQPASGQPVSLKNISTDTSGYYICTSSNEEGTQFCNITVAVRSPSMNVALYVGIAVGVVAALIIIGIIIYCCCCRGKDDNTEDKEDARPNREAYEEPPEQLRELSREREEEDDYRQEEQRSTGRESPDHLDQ
- METHOD_NOTES: FCM on LS174T cells; grade = ng/ml to reach half MFI 100 (+++ 10<=x<100, ++ 100<=x<1000, + 1000<=x<10000)
REPORTED_PROPERTY: antibody concentration required to reach half value of the mean fluorescence intensity

BINDER	RESULT
recM165 (antibody, V domains shown, also called recM165 antibody; M165 recombinant antibody) VH: QVQLVESGGGVVQPGRSLRLSCAASGFTFSYYGMHWVRQAPGKGLEWVAVIWYDGSNKYYADSVKGRFTISRDNSKKTLYLQMNSLRAEDTAVYYCARDGHSSGWGDFQHWGQGTLVTVSS VL: EIVLTQSPATLSLSPGERATLSCRASQSVSSSLAWYQQKPGQAPRLLIYDASNRATGIPARFSGSGSGTDFTLTISSLEPEDFAIYYCQQRSNWPPTFGQGTKVEIK	100 to 1000 ng/mL
recM10 (antibody, V domains shown, also called recM10 antibody; M10 recombinant antibody) VH: QLQVQESGPGLVKPSETLSLICTVSGGSIRTSGYYWGWFRQPPGKGLEWIGTSHNSGSTYYNPSLKSRVTISVDTSKNQFSLKLNSVTAADTAVYYCARQGYDFKVNIDVWGQGTTVTVSS VL: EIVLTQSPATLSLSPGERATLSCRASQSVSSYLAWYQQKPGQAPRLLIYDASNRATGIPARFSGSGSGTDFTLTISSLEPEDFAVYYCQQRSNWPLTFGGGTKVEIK	10 to 100 ng/mL
rec263 (antibody, V domains shown, also called rec263 antibody; rec263A1) VH: EVQLLESGGGLVQPGGSLRLSCAASGFTFSSYAMSWIRQAPGKGLEWVSAISASGGSTYYADSVKGRFTISRDNSKNTLYLQMNSLRAEDTAVYYCAKDRIVGATNYYYGMDVWGQGTTVTVSS VL: DIQMTQSPPSVSASVGDRVTITCRASQGISSWLAWYQHKPGKAPKLLIYGASSLQSGVPSRFSGSGSGTDFTLTISSLQPEDFATYYCQQANSFPITFGQGTRLEIK	100 to 1000 ng/mL
